Just for reference, patent US20260132182A1 is where these values come from.

Reported Human GLP-1R potency [EC50 (pM)] by item:
# systemName: human GLP-1 receptor (human, UniProt P43220 24-463)
# procedureDetails: cell-based or functional assay
Starred links: 1 amine or outer side, 2 acyl side, 3 side chain; linkers in the order of their positions; H or OH if unused. Non-standard residues stand in square brackets, D forms with d. Groups on a side chain read outwards from the residue. *: point of attachment. C18 diacid = O=C(O)CCCCCCCCCCCCCCCCC(=O)*; γGlu = O=C(O)[C@H](CCC(=O)[*:2])N[*:1]; AEEA = NCCOCCOCC(=O)O; Aib = CC(C)(N)C(=O)O
Write down the numeric answer in pM and omit the unit.

binder | endpointUnit | Human GLP-1R potency [EC50 (pM)]
Compound 0083 (peptide) peptide: H[Aib]EGTFTSDVSSYLEGQAAREFIAWLVRGRK([AEEA-AEEA-γGlu-C18 diacid])GQEPGQAPEASELSTAALGRLSAELHELATLPRTETGSGSP-NH2 | pM | 5.4

Inquiry: Which Human GLP-1R potency [EC50 (pM)] value belongs to Compound 0098 (Lys21 and Lys30 each (10-(4-carboxyphenoxy)decanoyl-gGlu-Ado-Ado); C-terminal amide) peptide: HGEGTFTSDVSSYLEEQAARKFIEWLVRGKGEGGGGGGGGGEASELSTAALGRLSAELHELATLPRTETGSGSP ?
Reply text: 7.9
